- Measured on: HEK 293 GPR73 (prokineticin 1 receptor) expressing cells (Homo sapiens, UniProt Q8TCW9)
- Sequence (Q8TCW9 whole entry): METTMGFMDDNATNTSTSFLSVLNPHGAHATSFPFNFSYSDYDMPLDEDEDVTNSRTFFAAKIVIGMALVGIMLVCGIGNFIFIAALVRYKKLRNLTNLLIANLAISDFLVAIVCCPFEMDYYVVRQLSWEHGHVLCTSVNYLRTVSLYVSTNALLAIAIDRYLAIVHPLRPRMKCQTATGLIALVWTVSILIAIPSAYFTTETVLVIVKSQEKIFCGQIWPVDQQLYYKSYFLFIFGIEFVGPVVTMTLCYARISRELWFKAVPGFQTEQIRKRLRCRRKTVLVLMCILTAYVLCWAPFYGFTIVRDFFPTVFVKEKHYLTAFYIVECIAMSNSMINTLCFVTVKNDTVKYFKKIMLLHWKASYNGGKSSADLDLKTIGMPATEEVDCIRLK
- Assay info: PK1 functional assay: screening for PK1 antagonists on the FLIPR (calcium fluorescence)
- Assay context: HEK 293 GPR73 cells, PK1 ligand at EC50, multiple values = repeat tests, read-out: Ca^2+ Mobilization IC50
Observation type: IC50 (nM)

# Compound, Measured on, Unit label, IC50
data = [
    ("COC(=O)c1cccc(Cn2c(=O)nc(NCCNC(=N)N)n(Cc3ccc(OC)cc3)c2=O)c1 [Cpd 100]", "HEK 293 GPR73 (prokineticin 1 receptor) expressing cells (Homo sapiens, UniProt Q8TCW9)", "nM", 8820),
    ("COc1ccc(Cn2c(NCCNC(=N)Nc3ccc(Cl)cc3)nc(=O)n(Cc3ccc(Cl)c(Cl)c3)c2=O)cc1 [Cpd 73]", "HEK 293 GPR73 (prokineticin 1 receptor) expressing cells (Homo sapiens, UniProt Q8TCW9)", "nM", 39),
    ("COc1ccc(CCn2c(NCCNC(=N)N)nc(=O)n(Cc3ccc(F)cc3)c2=O)cc1 [Cpd 33]", "HEK 293 GPR73 (prokineticin 1 receptor) expressing cells (Homo sapiens, UniProt Q8TCW9)", "nM", 2860),
    ("COc1ccc(Cn2c(=O)nc(NCCNC(=N)N)n(CC3CCC(OC)CC3)c2=O)cc1 (stereo not shown) [Cpd 86]", "HEK 293 GPR73 (prokineticin 1 receptor) expressing cells (Homo sapiens, UniProt Q8TCW9)", "nM", 3260),
    ("COc1ccc(Cn2c(NCCN(C(=N)N)C(C)C)nc(=O)n(Cc3ccc(Cl)c(Cl)c3)c2=O)cc1 [Cpd 58]", "HEK 293 GPR73 (prokineticin 1 receptor) expressing cells (Homo sapiens, UniProt Q8TCW9)", "nM", 16),
]

P. COc1ccc(Cn2c(OCCNC(=N)N)cc(=O)n(Cc3ccc(OC)cc3)c2=O)cc1 [Cpd 158]
Q. COc1ccc(Cn2c(NCCNC(=N)NCCN3CCOCC3)nc(=O)n(Cc3ccc(F)cc3)c2=O)cc1 [Cpd 88]
R. COc1ccc(Cn2c(NCCNC(=N)N)nc(=O)n(Cc3ccoc3)c2=O)cc1 [Cpd 77]
S. COc1ccc(Cn2c(NCCNC(=N)N)nc(=O)n(Cc3cc4ccccc4o3)c2=O)cc1 [Cpd 112]
QUERY: rank_up(items): orders items by reported IC50 in ascending numerical order. List labels; respect the requested ordering.
RESULT: S, P, R, Q
(S: 26 nM, P: 254 nM, R: 789 nM, Q: 4740 nM)

###

- Measured on: HEK 293 GPR73 (prokineticin 1 receptor) expressing cells (Homo sapiens, UniProt Q8TCW9)
- Construct: expressed in transfected cells; host or cells: HEK 293
- Assay info: PK1 functional assay: screening for PK1 antagonists on the FLIPR (calcium fluorescence)
- Assay type: cell-based
- Assay context: HEK293, compound at 10 μM, HEK 293 GPR73 cells, multiple values = repeat tests, read-out: Ca^2+ Mobilization % Inh @10 μM
Observation type: inhibition at 10 µM (%)

Example entries and their recorded answers appear below.
# Given smiles, inhibition at 10 µM / %
rows = [
    ("CCOc1ccc(Cn2c(NCCNC(=N)N)nc(=O)n(Cc3ccc(F)cc3)c2=O)cc1", 99),
    ("COc1ccc(Cn2c(NCCNC(=N)N)nc(=O)n(Cc3cc4ccccc4o3)c2=O)cc1", 101),
    ("COc1ccc(Cn2c(NCCCCCNC(=N)N)nc(=O)n(Cc3ccc(Cl)cc3)c2=O)cc1", 90),
]

P. COc1ccc(Cn2c(NCCNC(=N)N)nc(=O)n(Cc3cccs3)c2=O)cc1
Q. COc1ccc(Cn2c(NCCNC(=N)N)nc(=O)n(Cc3cccc(C#N)c3)c2=O)cc1
R. CCOc1cccc(Cn2c(NCCNC(=N)N)nc(=O)n(Cc3ccc(Cl)c(Cl)c3)c2=O)c1
QUERY: Please give the order of these molecules when sorted by inhibition at 10 µM, largest value leading. List labels; respect the requested ordering.
RESULT: P, R, Q

###

- Measured on: HEK 293 GPR73 (prokineticin 1 receptor) expressing cells (Homo sapiens, UniProt Q8TCW9)
- Assay info: PK1 functional assay: screening for PK1 antagonists on the FLIPR (calcium fluorescence)
- Assay context: HEK 293 GPR73 cells, PK1 ligand at EC50, multiple values = repeat tests, read-out: Ca^2+ Mobilization IC50
- Protocol: At a time of 24 h prior to running the assay, in cell culture media (DMEM containing high Glucose and L-glutamine, 10% FBS, 1% Pen/Streptomycin, 1% Sodium Pyruvate, 20 mM HEPES, Zeocin 200 mg/L), 100 μL of 1.3*10^6/ml HEK 293 GPR73 (prokineticin 1 receptor) expressing cells were plated in a 96 well poly-d-lysine coated plate (Costar), and incubated at 37 C and 5% CO2. […] Baseline is described as the amount of relative fluorescence read when buffer alone is added to cells. […]
pIC50: −log10 of the molar value.
Observation type: pIC50

# Given smiles, pIC50
measured = [
    ("COc1ccc(Cn2c(NCC(C)(C)NC(=N)N)nc(=O)n(Cc3ccc(Cl)c(Cl)c3)c2=O)cc1", 5.46),
    ("COc1ccc(Cn2c(NCCNC(=N)N)nc(=O)n(Cc3csc(Cl)n3)c2=O)cc1", 6.81),
    ("COc1ccc(Cn2c(NCCNC(=N)NC3CCCCC3)nc(=O)n(Cc3ccc(Cl)c(Cl)c3)c2=O)cc1", 7.23),
]

1. COc1ccc(Cn2c(NCCNC(=N)N)nc(=O)n(Cc3ccc(O)cc3)c2=O)cc1
2. N=C(N)NCCNc1nc(=O)n(Cc2ccc(Cl)c(Cl)c2)c(=O)n1Cc1ccc(OC(F)(F)F)cc1
3. COc1ccc(Cn2c(NCCNC(=N)N)nc(=O)n(Cc3ccc(N)cc3)c2=O)cc1
QUERY: Please give the order of these compounds when sorted by pIC50, largest value leading. List labels; respect the requested ordering.
RESULT: 2, 3, 1
(2: 6.61, 3: 6.31, 1: 5.94)

###

- Measured on: HEK 293 GPR73 (prokineticin 1 receptor) expressing cells (Homo sapiens, UniProt Q8TCW9)
- Assay info: PK1 functional assay: screening for PK1 antagonists on the FLIPR (calcium fluorescence)
- Assay context: HEK 293 GPR73 cells, PK1 ligand at EC50, multiple values = repeat tests, read-out: Ca^2+ Mobilization IC50
pIC50: −log10 of the molar value.
Observation type: pIC50

Example entries and their recorded answers appear below.
# Given smiles, pIC50
measured = [
    ("COc1ccc(Cn2c(NCCNC(=N)Nc3ccc(Br)cc3)nc(=O)n(Cc3ccc(F)cc3)c2=O)cc1", 7.64),
    ("COc1ccc(Cn2c(NCCNC(=N)NCC(F)(F)F)nc(=O)n(Cc3ccc(F)cc3)c2=O)cc1", 7.39),
]

A. N=C(N)NCCNc1nc(=O)n(Cc2ccc(Cl)c(Cl)c2)c(=O)n1Cc1ccc(C(N)=O)cc1
B. COc1ccc(Cn2c(NCC(=O)NC(=N)NC(=O)OC(C)(C)C)nc(=O)n(Cc3ccc(F)cc3)c2=O)cc1
QUERY: Choose between A and B : whose measured pIC50 value is numerically larger? Please respond with the label that marks your chosen entry.
RESULT: A

###

- Measured on: HEK 293 GPR73 (prokineticin 1 receptor) expressing cells (Homo sapiens, UniProt Q8TCW9)
- Construct: expressed in transfected cells; host or cells: HEK 293
- Assay info: PK1 functional assay: screening for PK1 antagonists on the FLIPR (calcium fluorescence)
- Format: cell-based
- Assay context: HEK293, compound at 10 μM, HEK 293 GPR73 cells, multiple values = repeat tests, read-out: Ca^2+ Mobilization % Inh @10 μM
Observation type: inhibition at 10 µM (%)

# Molecule, inhibition at 10 µM (%)
data = [
    ("COc1ccc(Cn2c(NCCNC(=N)Nc3ccc(C(C)=O)cc3)nc(=O)n(Cc3ccc(Cl)c(Cl)c3)c2=O)cc1 [Cpd 76]", 93),
]

A. COc1ccc(Cn2c(N3CCC(NC(=N)N)C3)nc(=O)n(Cc3ccc(Cl)c(Cl)c3)c2=O)cc1 (centres unmarked) [Cpd 55]
B. N=C(N)NCCNc1nc(=O)n(Cc2ccc(Cl)c(Cl)c2)c(=O)n1Cc1ccc(OC(F)(F)F)cc1 [Cpd 40]
QUERY: Decide: A or B , by lowest recorded inhibition at 10 µM. Please respond with the label that marks your chosen entry.
RESULT: A

###

- Measured on: HEK 293 GPR73 (prokineticin 1 receptor) expressing cells (Homo sapiens)
- Construct: expressed in transfected cells; host or cells: HEK 293
- Assay info: PK1 functional assay: screening for PK1 antagonists on the FLIPR (calcium fluorescence)
- Assay type: cell-based
- Assay context: HEK293, compound at 10 μM, HEK 293 GPR73 cells, multiple values = repeat tests, read-out: Ca^2+ Mobilization % Inh @10 μM
Observation type: inhibition at 10 µM (%)

# Molecule, Observation type, Recorded value
measured = [
    ("COc1ccc(Cn2c(NCCNC(=N)N)nc(=O)n(CCc3ccccc3)c2=O)cc1 [Cpd 4]", "inhibition at 10 µM", 71),
    ("COc1ccc(Cn2c(NCCNC(=N)N)nc(=O)n(Cc3ccc(O)cc3)c2=O)cc1 [Cpd 110]", "inhibition at 10 µM", 81),
    ("COc1ccc(Cn2c(NCCNC(=N)N)nc(=O)n(Cc3cccc(OC)c3)c2=O)cc1 [Cpd 20]", "inhibition at 10 µM", 61),
    ("COc1ccc(Cn2c(NCCNC(=N)N)nc(=O)n(Cc3ccc(Cl)c(Cl)c3)c2=O)cc1 [Cpd 18]", "inhibition at 10 µM", 98),
    ("COc1ccc(Cn2c(NCCNC(=N)NN)nc(=O)n(Cc3ccc(F)cc3)c2=O)cc1 [Cpd 93]", "inhibition at 10 µM", 92),
    ("COc1ccc(Cn2c(NCCCCCCNC(=N)N)nc(=O)n(Cc3ccc(Cl)cc3)c2=O)cc1 [Cpd 144]", "inhibition at 10 µM", 77),
]
